Molecular target: BRAF D594G (Homo sapiens, UniProt P15056, D594G)
Construct: Horizon Discovery (HCT-116 BRAF−/− cells); host or cells: HCT-116 BRAF−/− cells, clone 63, lentiviral transduction
Sequence (P15056 whole entry D594G): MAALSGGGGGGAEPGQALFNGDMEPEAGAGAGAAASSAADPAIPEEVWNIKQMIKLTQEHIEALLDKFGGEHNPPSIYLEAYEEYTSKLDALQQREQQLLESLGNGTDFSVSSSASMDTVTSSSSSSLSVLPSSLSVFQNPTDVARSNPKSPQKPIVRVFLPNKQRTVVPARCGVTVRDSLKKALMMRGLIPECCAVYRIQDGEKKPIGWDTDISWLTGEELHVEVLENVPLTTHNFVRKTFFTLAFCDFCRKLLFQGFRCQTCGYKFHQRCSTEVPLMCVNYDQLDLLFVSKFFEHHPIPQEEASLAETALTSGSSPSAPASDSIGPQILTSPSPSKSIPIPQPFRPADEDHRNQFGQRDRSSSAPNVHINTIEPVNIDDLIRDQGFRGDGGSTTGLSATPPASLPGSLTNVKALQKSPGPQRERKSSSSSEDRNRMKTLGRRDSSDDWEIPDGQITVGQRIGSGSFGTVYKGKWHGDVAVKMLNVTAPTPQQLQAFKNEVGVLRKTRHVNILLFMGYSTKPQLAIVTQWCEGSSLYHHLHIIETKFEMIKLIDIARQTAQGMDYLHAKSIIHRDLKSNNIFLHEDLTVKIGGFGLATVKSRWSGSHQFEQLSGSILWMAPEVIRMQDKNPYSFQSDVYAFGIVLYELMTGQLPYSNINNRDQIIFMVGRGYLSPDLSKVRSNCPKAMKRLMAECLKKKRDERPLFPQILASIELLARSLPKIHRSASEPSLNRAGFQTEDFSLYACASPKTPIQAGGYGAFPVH
Assay: BRAF HiBiT degradation assay, C-terminal HiBiT-tagged BRAF D594G overexpressed in HCT-116 BRAF−/− cells (clone 63), Nano-Glo HiBiT Lytic assay
Assay type: cell-based
Settings: HCT-116; BRAF D594G; percentage protein degraded at maximal compound effect relative to DMSO
Recorded Dmax by entry

Some molecules with recorded Dmax:
CCCS(=O)(=O)Nc1cccc(-c2nc(-c3ccc(C4CCN(CC5CCN(c6ccc(C7CCC(=O)NC7=O)cn6)CC5)CC4)cc3)sc2-c2ccnc(N)n2)c1F (racemic) [Compound 208]	30 to 70%
CCCS(=O)(=O)Nc1cccc(-c2nc(C(C)(C)C)sc2-c2ccnc(Nc3ccc(C4CCN(C(=O)C[C@H]5CCN(c6ccc(C7CCC(=O)NC7=O)cc6)C5)CC4)cc3)n2)c1F (mixture of isomers) [Compound 165]	< 30%
CCCS(=O)(=O)Nc1cccc(-c2nc(C(C)(C)C)sc2-c2ccnc(Nc3cccc(OC4CCN(C(=O)C[C@@H]5CCN(c6ccc(C7CCC(=O)NC7=O)cc6)C5)CC4)c3)n2)c1F (mixture of isomers) [Compound 92]	< 30%
CCCS(=O)(=O)Nc1cccc(-c2cn(-c3ccc(N4CCN(CC5CCN(c6ccc([C@@H]7CCC(=O)NC7=O)cc6)CC5)CC4)cc3)nc2-c2ccncc2)c1F [Compound 10]	30 to 70%

Okay, now this molecule:
Entry CCCS(=O)(=O)Nc1cccc(-c2nc(C(C)(C)C)sc2-c2ccnc(Nc3ccc(N4CCN(C(=O)C5CCN(c6ccc(C7CCC(=O)NC7=O)cc6)CC5)CC4)c(F)c3)n2)c1F (racemic) [Compound 65] , Dmax reported as 30 to 70%

---

Target: BRAF G469A (Homo sapiens, UniProt P15056, G469A)
Construct: Horizon Discovery (HCT-116 BRAF−/− cells); host or cells: HCT-116 BRAF−/− cells, clone 34, lentiviral transduction
Sequence (P15056 whole entry G469A): as the sequence (P15056 whole entry D594G) above, with G469A, G594D counted along it
Experiment: BRAF HiBiT degradation assay, C-terminal HiBiT-tagged BRAF G469A overexpressed in HCT-116 BRAF−/− cells (clone 34), Nano-Glo HiBiT Lytic assay
Format: cell-based
Settings: HCT-116; Class 2; BRAF G469A; percentage protein degraded at maximal compound effect relative to DMSO
readout name: Dmax

Some compounds with recorded Dmax:
CCCS(=O)(=O)Nc1cccc(-c2nc(-c3ccc(C4CCN(CC5CCN(c6ccc(C7CCC(=O)NC7=O)cn6)CC5)CC4)cc3)sc2-c2ccnc(N)n2)c1F (racemic) [Compound 208]	30 to 70%
CCN(C)S(=O)(=O)Nc1cccc(-c2nc(C)sc2-c2ccnc(Nc3ccc(N4CCN(CC5CCN(c6ccc(C7CCC(=O)NC7=O)cn6)CC5)CC4)cn3)n2)c1F (racemic) [Compound 43]	30 to 70%
CCCS(=O)(=O)Nc1cccc(-c2cn(-c3ccc(N4CCN(CC5CCN(c6ccc([C@@H]7CCC(=O)NC7=O)cc6)CC5)CC4)cc3)nc2-c2ccncc2)c1F [Compound 10]	30 to 70%
CCCS(=O)(=O)Nc1cccc(-c2nc(C3CCN(C(=O)C4CCN(CC5CCN(c6ccc(C7CCC(=O)NC7=O)cn6)CC5)CC4)CC3)sc2-c2ccncc2)c1F (racemic) [Compound 211]	< 30%
CCCS(=O)(=O)Nc1cccc(-c2nc(C3(C)CCN(C(=O)CN4CCC5(CC4)CN(c4ccc6c(c4)C(=O)N(C4CCC(=O)NC4=O)C6=O)C5)CC3)sc2-c2ccnc(N)n2)c1F (racemic) [Compound 238]	30 to 70%
CCCS(=O)(=O)Nc1cccc(-c2nc(C(C)(C)C)sc2-c2ccnc(Nc3cccc(C4CCN(CC[C@@H]5CCN(c6ccc(C7CCC(=O)NC7=O)cn6)C5)CC4)c3)n2)c1F (mixture of isomers) [Compound 75]	< 30%

Entry CCCS(=O)(=O)Nc1cccc(-c2nc(C(C)(C)C)sc2-c2ccnc(N[C@H]3CC[C@@H](N4CCN(C(=O)C5CCN(c6ccc(C7CCC(=O)NC7=O)cn6)CC5)CC4)CC3)n2)c1F (mixture of isomers) [Compound 138] , Dmax reported as 30 to 70%
